Ref: patent US10703764B2

Target Desc: BRD4 BD2 (Homo sapiens, UniProt O60885)
Method Notes: AlphaScreen binding assay, BRD4 Bromodomain 2
pIC50: −log10 of the molar value.
Measurement Type: pIC50

# Molecule, Target Desc, Measurement Type, Measurement
records = [
    ("CC(=O)N1c2ccc(N(C)c3ccccc3)cc2N(C(=O)c2ccco2)C[C@@H]1C [Example I-992]", "BRD4 BD2 (Homo sapiens, UniProt O60885)", "pIC50", "< 6.30"),
    ("CCOC(=O)N1C[C@H](C)N(C(C)=O)c2ccc(-c3ccc(S(N)(=O)=O)cc3)cc21 [Example I-1068]", "BRD4 BD2 (Homo sapiens, UniProt O60885)", "pIC50", "6.30 to 7.30"),
    ("CC(=O)N1c2ccccc2N(C(=O)c2csc(C(F)(F)F)n2)C[C@@H]1C [Example I-761]", "BRD4 BD2 (Homo sapiens, UniProt O60885)", "pIC50", "< 6.30"),
    ("CC(=O)N1c2ccc(-c3cnn(C4CC4)c3)cc2N(C(=O)OC(C)C)C[C@@H]1C [Example I-22]", "BRD4 BD2 (Homo sapiens, UniProt O60885)", "pIC50", "6.30 to 7.30"),
    ("CC(=O)N1c2ccc(-c3cnn(CC(=O)O)c3)cc2N(C(=O)OC(C)C)C[C@@H]1C [Example I-130]", "BRD4 BD2 (Homo sapiens, UniProt O60885)", "pIC50", "6.30 to 7.30"),
]

Q: Write down the reported pIC50 of CC(=O)N1c2ccccc2N(C(=O)CCN(C)C)C[C@@H]1C [Example I-693] , test system: BRD4 BD2 (Homo sapiens, UniProt O60885).
Result: < 6.30

Q: Give recorded pIC50 with BRD4 BD2 (Homo sapiens, UniProt O60885) for the following molecule: CC(=O)N1c2ccc(-c3cnn(C4CNC4)c3)cc2N(C(=O)OC(C)C)C[C@@H]1C [Example I-356]
Result: > 7.30

Q: BRD4 BD2 (Homo sapiens, UniProt O60885) / pIC50 / CC(=O)N1c2ccc(-c3ccc(S(C)(=O)=O)cc3)cc2N(C(=O)NCc2ccccc2Cl)C[C@@H]1C [Example I-977] : value?
Result: < 6.30

====

# IC50 annotations
Target Desc: BRD4 BD2 (Homo sapiens, UniProt O60885)
Method Notes: AlphaScreen binding assay, BRD4 Bromodomain 2

Some compounds with recorded IC50:
# Compound, Target Desc, Measurement
measured = [
    ("CC(=O)N1c2ccc(-c3cnn(C4COC4)c3)cc2N(C(=O)CC2CC2)C[C@@H]1C [Example I-107]", "BRD4 BD2 (Homo sapiens, UniProt O60885)", "50 to 500 nM"),
    ("CC(=O)c1ccc(S(=O)(=O)N2C[C@H](C)N(C(C)=O)c3ccccc32)cc1 [Example I-957]", "BRD4 BD2 (Homo sapiens, UniProt O60885)", "> 500 nM"),
    ("CC(=O)N1c2ccc(-c3cnoc3)cc2N(C(=O)c2ccco2)C[C@@H]1C [Example I-390]", "BRD4 BD2 (Homo sapiens, UniProt O60885)", "50 to 500 nM"),
    ("CC(=O)N1c2ccccc2N(C(=O)c2cccc3ccccc23)C[C@@H]1C [Example I-719]", "BRD4 BD2 (Homo sapiens, UniProt O60885)", "> 500 nM"),
    ("CO[C@H](C(=O)N1C[C@H](C)N(C(C)=O)c2ccccc21)c1ccccc1 [Example I-741]", "BRD4 BD2 (Homo sapiens, UniProt O60885)", "> 500 nM"),
    ("CCOC(=O)N1C[C@H](C)N(C(C)=O)c2ccc(-c3ccc(NS(C)(=O)=O)c(C)c3)cc21 [Example I-1173]", "BRD4 BD2 (Homo sapiens, UniProt O60885)", "50 to 500 nM"),
]

Q: I'd like to know its IC50. The compound in question is CC(=O)N1c2ccc(-c3ccc(S(=O)(=O)CC(C)C)cc3)cc2N(C(=O)OC2CCOCC2)C[C@@H]1C [Example I-1240]
Result: 50 to 500 nM

Q: I would be grateful if you could share the reported IC50 for CC(=O)N1c2ccc(-c3cnn(C4CCNCC4)c3)cc2N(C(=O)Oc2ccccn2)C[C@@H]1C [Example I-1332] .
Result: < 50 nM
